- measuredOn: T1, ecdTDR F279/F281 double alanine mutant (Arabidopsis thaliana, UniProt Q9FII5 30-642, F279 to alanine | F281 to alanine)
- T1 sequence: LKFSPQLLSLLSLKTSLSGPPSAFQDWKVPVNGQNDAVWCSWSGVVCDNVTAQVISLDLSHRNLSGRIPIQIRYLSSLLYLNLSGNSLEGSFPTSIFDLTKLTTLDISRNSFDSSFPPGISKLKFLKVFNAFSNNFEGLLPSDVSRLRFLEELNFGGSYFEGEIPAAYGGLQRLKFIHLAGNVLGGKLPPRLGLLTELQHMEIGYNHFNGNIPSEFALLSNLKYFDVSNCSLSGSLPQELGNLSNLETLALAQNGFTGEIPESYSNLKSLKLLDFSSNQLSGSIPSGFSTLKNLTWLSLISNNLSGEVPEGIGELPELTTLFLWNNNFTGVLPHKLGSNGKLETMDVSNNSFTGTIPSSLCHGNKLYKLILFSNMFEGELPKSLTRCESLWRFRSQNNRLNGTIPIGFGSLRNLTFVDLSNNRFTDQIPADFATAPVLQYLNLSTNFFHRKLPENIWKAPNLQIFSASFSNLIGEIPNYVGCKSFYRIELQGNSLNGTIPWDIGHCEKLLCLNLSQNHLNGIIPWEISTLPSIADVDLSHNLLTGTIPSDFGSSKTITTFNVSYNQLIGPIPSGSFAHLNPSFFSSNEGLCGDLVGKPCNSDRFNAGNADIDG
- protocol: ITC
Square brackets hold non-standard residues; d marks the D form. Ends that are not written are not given here. Hyp = O=C(O)[C@@H]1C[C@@H](O)CN1
assayMetric: Kd (nM)
# value in nM; strip the unit string

Q. Tell me the measured Kd of HEV[Hyp]SG[Hyp]NPISN (TDIF, the 12-residue CLE peptide processed from CLE41 and CLE44 of A. thaliana; printed as HEV(Hyp)SG(Hyp)NPISN; numbers count on: the 12-residue peptide; CLE44 encodes the same peptide; also called wild type TDIF; wtTDIF; source: synthetic peptide (peptide 2.0)) [Tracheary Element Differentiation Inhibitory Factor (TDIF) peptide] , please.
A. 887
